# Test system: Kyn levels in HeLa cells
# assay summary: Manual Kyn assay in HeLa cells (p-DMAB detection)
# Type: cell-based
# condition info: IFN-γ, L-Trp, compounds 48 h, p-DMAB, mean n=3 ±SD, listed as 3d^a, read-out: Kyn Assay IC50
outcome measure: IC50 (nM)
Write down the numeric answer in nM and omit the unit.

Prompt: // IC50 lookup, key: "CCOC(=O)C1=CC[C@](C(=O)OC)(c2cc3ccccc3n2C)N(S(=O)(=O)c2ccc(C)cc2)[C@@H]1C(=O)OC(C)(C)C"
Response: 280

* * *

# Tested on: Kyn levels in HeLa cells
# assay summary: Manual Kyn assay in HeLa cells (p-DMAB detection)
# Assay type: cell-based
# condition info: IFN-γ, L-Trp, compounds 48 h, p-DMAB, mean n=3 ±SD, listed as 3d^b, read-out: Kyn Assay IC50
outcome measure: pIC50
// field semantics: pIC50 = negative decimal log of concentration (mol/L)

Prompt: I'd like to know its pIC50. The molecule in question is "CCOC(=O)C1=CC[C@](C(=O)OC)(c2cc3ccccc3n2C)N(S(=O)(=O)c2ccc(C)cc2)[C@@H]1C(=O)OC(C)(C)C"
Response: 7.33

* * *

# Tested on: Kyn levels in HeLa cells
# assay summary: Manual Kyn assay in HeLa cells (p-DMAB detection)
# Assay type: cell-based
# condition info: IFN-γ, L-Trp, compounds 48 h, p-DMAB, mean n=3 ±SD, listed as 3f^bc, read-out: Kyn Assay IC50
outcome measure: IC50 (nM)
// units = nM; emit number, no label

Prompt: Quick one: IC50 for CCOC(=O)C1=CC[C@](C(=O)OC)(c2cc3ccccc3n2C)N(S(C)(=O)=O)[C@@H]1C(=O)OC(C)(C)C [Compound 3f] ?
Response: 90

* * *

# Tested on: Kyn levels in HeLa cells
# assay summary: Manual Kyn assay in HeLa cells (p-DMAB detection)
# Assay type: cell-based
# condition info: IFN-γ, L-Trp, compounds 48 h, p-DMAB, mean n=3 ±SD, listed as 3l^a, read-out: Kyn Assay IC50
outcome measure: IC50 (nM)
Numbers only here, please. The scale is nM.

Prompt: Quick one: IC50 of "COC(=O)[C@]1(c2cc3ccccc3n2C)CC=C(C(=O)OCc2ccccc2)[C@@H](C(=O)OC(C)(C)C)N1S(=O)(=O)c1ccccc1[N+](=O)[O-]" ?
Response: 2880

* * *

# target: rhIDO1 (holo-IDO1) (Homo sapiens)
# Construct: His; made in house; host or cells: E. coli
# Sequence (P14902 whole entry): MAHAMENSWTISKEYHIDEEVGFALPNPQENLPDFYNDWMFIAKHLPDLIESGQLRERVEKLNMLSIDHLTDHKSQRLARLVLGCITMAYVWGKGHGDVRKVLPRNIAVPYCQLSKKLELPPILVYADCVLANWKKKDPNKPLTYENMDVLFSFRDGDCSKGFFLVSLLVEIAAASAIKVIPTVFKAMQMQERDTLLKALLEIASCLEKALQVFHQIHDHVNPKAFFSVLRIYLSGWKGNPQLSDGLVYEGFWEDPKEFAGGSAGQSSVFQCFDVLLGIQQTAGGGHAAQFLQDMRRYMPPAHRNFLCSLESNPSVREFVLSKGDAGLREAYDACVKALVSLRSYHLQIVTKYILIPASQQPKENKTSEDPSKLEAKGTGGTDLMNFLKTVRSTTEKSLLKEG
# assay summary: nanoDSF thermal denaturation of IDO1
# Format: binding
# condition info: 48 °C; FoldAffinity; first replicate; read-out: KD, 48°C (isothermal analysis, single replicate)
outcome measure: pKd
Keep in mind that pKd stands for -log10 of concentration in molar terms.

Prompt: I'd like to know its pKd. The compound in question is "CCOC(=O)C1=CC[C@](C(=O)OC)(c2cc3ccccc3n2C)N(S(=O)(=O)c2ccc(C)cc2)[C@@H]1C(=O)OC(C)(C)C"
Response: 7.94

* * *

# target: rhIDO1 (holo-IDO1) (Homo sapiens)
# Construct: His; made in house; host or cells: E. coli
# assay summary: nanoDSF thermal denaturation of IDO1
# Assay type: binding
# condition info: at 49 °C; read-out: KD (isothermal analysis of nanoDSF data)
outcome measure: Kd (nM)
Answer format: numeric, nM implied, no suffix.

Prompt: Any idea what its Kd is? The compound is "CCOC(=O)C1=CC[C@](C(=O)OC)(c2cc3ccccc3n2C)N(S(=O)(=O)c2ccc(C)cc2)[C@@H]1C(=O)OC(C)(C)C"
Response: 20.7
